Reported log10(IC50) values for a set of compounds
Molecular target: Human recombinant MMP-2 (Homo sapiens, UniProt P08253)
Construct: made in house; host or cells: MMP-2-transfected p2AHT2 cells
Sequence (P08253 110-660): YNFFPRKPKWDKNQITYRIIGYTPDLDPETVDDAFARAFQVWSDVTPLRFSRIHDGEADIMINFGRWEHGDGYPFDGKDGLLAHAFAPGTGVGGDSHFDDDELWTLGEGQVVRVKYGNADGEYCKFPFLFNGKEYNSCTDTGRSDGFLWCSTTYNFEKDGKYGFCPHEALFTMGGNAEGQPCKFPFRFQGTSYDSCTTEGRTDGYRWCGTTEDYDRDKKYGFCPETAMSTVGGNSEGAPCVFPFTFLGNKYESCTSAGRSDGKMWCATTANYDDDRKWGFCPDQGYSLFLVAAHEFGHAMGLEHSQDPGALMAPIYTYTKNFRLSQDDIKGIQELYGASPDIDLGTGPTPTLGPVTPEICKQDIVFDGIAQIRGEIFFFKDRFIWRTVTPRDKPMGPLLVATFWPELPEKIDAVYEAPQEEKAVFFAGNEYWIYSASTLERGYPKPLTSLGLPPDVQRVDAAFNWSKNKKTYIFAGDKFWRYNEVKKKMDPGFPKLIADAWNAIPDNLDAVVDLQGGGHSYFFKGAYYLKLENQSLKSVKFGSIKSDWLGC
Assay: In vitro MMP inhibition, IC50 determination (fluorogenic substrate I)
Assay type: biochemical
Details: value outside parenthesis
Protocol: Several hydroxamates and salts thereof were analyzed in in vitro assays to determine their ability to inhibit the MMP cleavage of peptide substrates. Inhibition (Ki) and IC50 constants were calculated from the assayed hydroxamate-MMP interactions. […] The assays from which the IC50 determinations were made were performed as follows. […] The assayed hydroxamate samples were, incubated in Microfluorrm White Plates (Dynatech, Chantilly, VA) and analyzed on a Perkin Elmer L550 plate reader (Norwalk, Conn.). […]
Could you please treat all values as log10 of IC50 in nM?

>  <LINE_NOTATION>
COCCN1CCC(C(=O)NO)(S(=O)(=O)c2ccc(OCCCc3nc(-c4cccc5ccccc45)no3)cc2)CC1

>  <TARGET_OR_TEST_SYSTEM>
Human recombinant MMP-2 (Homo sapiens, UniProt P08253)

>  <VALUE_MEASURED>
2.12

$$$$
>  <LINE_NOTATION>
O=C(NO)C1(S(=O)(=O)c2ccc(OCCCc3nc(-c4ccc(OC(F)(F)F)cc4)no3)cc2)CCN(Cc2ccccc2)CC1

>  <TARGET_OR_TEST_SYSTEM>
Human recombinant MMP-2 (Homo sapiens, UniProt P08253)

>  <VALUE_MEASURED>
2.87

$$$$
>  <LINE_NOTATION>
Cc1ccccc1-c1cccc(CCCOc2ccc(S(=O)(=O)C3(C(=O)NO)CCOCC3)cc2)c1

>  <TARGET_OR_TEST_SYSTEM>
Human recombinant MMP-2 (Homo sapiens, UniProt P08253)

>  <VALUE_MEASURED>
3.03

$$$$
>  <LINE_NOTATION>
O=C(CCCc1ccc(S(=O)(=O)C2(C(=O)NO)CCOCC2)cc1)c1cccc(-c2ccccc2)c1

>  <TARGET_OR_TEST_SYSTEM>
Human recombinant MMP-2 (Homo sapiens, UniProt P08253)

>  <VALUE_MEASURED>
1.78

$$$$
>  <LINE_NOTATION>
Cc1ccc(/C(C#N)=C/CCCOc2ccc(S(=O)(=O)C3(C(=O)NO)CCN(C4CC4)CC3)cc2)cc1C

>  <TARGET_OR_TEST_SYSTEM>
Human recombinant MMP-2 (Homo sapiens, UniProt P08253)

>  <VALUE_MEASURED>
2.11

$$$$

For the next question, use this compound.
# compound Cc1cc(-c2cccc(CCOc3ccc(S(=O)(=O)C4(C(=O)NO)CCOCC4)cc3)c2)ccc1F ; its log10(IC50) = 3.07

# credit: patent US20040024024A1
